Target Entity: Cdk2(N272C) (C177A) (Homo sapiens, UniProt P24941, C177A/N272C)
Construct: poly-histidine; made in house; host or cells: E. coli
Run Description: Kinetic thiol consumption assay with Cdk2 mutant N272C
Assay type: binding
Parameters: key: rate constant with Cdk2 ÷ rate constant with model thiol (fold)
Run Parameters: Cdk2 N272, additional mutation C177A
The following ranges of Rate enhancement, Cdk2 N272 define the classes used here: low group = under 0.3, middle group = from 0.3 up to 0.4, high group = 0.4 and over

- Compound: "C=CC(=O)NC1CC(NC(=O)C2CCC2)C1 (centres unmarked)"
  Assigned Category: "high group"
- Compound: "C=CC(=O)N1CCC(NC(=O)C2CCC2)C1 (centres unmarked)"
  Assigned Category: "high group"
- Compound: "C=CC(=O)N1CCN(Cc2ccc(Cl)cc2)CC1"
  Assigned Category: "high group"
- Compound: "C=CC(=O)Nc1cccc(C(=O)c2ccccc2)c1"
  Assigned Category: "middle group"
- Compound: "C=CC(=O)N1CCN(c2cccc3cccnc23)CC1"
  Assigned Category: "middle group"
- Compound: "C=CC(=O)N1C(=O)CC(c2ccccc2)N(C(=O)C=C)c2ccccc21 (centres unmarked)"
  Assigned Category: "low group"
- Compound: "C=CC(=O)N1CCCC2(CCCc3ccccc32)C1 (centres unmarked)"
  Assigned Category: "low group"
- Compound: "C=CC(=O)N1CC2(CCC2)c2c(F)cccc21"
  Assigned Category: "middle group"
- Compound: "C=CC(=O)N1CCC2(CCCCCC2)C1"
  Assigned Category: "high group"
- Compound: "C=CC(=O)N1CCC2(CC1)NC(=O)N(C)C2=O"
  Assigned Category: "low group"
